Kindly state MIC for each of the entries shown.
- Tested on: Staphylococcus aureus
- EXPERIMENTAL_DETAILS: Minimum inhibitory concentration against Staphylococcus aureus ATCC 6538PEry-S
- Type: functional
- CONDITIONS: ATCC 6538P

Batch of 4 compounds: report MIC for each.
1. CC[C@H]1OC(=O)[C@H](C)C(=O)[C@H](C)[C@@H](O[C@@H]2O[C@H](C)C[C@H](N(C)C)[C@H]2O)[C@](C)(OC/C=C/c2ccc3nnccc3c2)C[C@@H](C)C(=O)[C@H](C)[C@H]2NC(=O)O[C@@]21C
2. CC[C@H]1OC(=O)[C@H](C)[C@@H](O[C@H]2C[C@@](C)(OC)[C@@H](O)[C@H](C)O2)[C@H](C)[C@@H](O[C@@H]2O[C@H](C)C[C@H](N(C)C)[C@H]2O)[C@](C)(OC/C=C/c2ccccc2)C[C@@H](C)C(=O)[C@H](C)[C@@H](O)[C@]1(C)O
3. CC[C@H]1OC(=O)[C@H](C)C(=O)[C@H](C)[C@@H](O[C@@H]2O[C@H](C)C[C@H](N(C)C)[C@H]2O)[C@](C)(OCCN)C[C@@H](C)C(=O)[C@H](C)[C@@H](O)[C@]1(C)O
4. CC[C@H]1OC(=O)[C@H](C)C(=O)[C@H](C)[C@@H](O[C@@H]2O[C@H](C)C[C@H](N(C)C)[C@H]2O)[C@](C)(OC/C=C/c2cnc3nccnc3c2)C[C@@H](C)C(=O)[C@H](C)[C@H]2NC(=O)O[C@@]21C

**A:**
0.05 µg/mL
0.39 µg/mL
25 µg/mL
0.2 µg/mL
